Data credit: the SangsterLogP compilation

Reported values of logD for individual entries
Assay: method code SF-AS, from DOI: 10.1248/cpb.17.2558
Conditions: pH 2.0

{"Smi": "Cc1ccccc1S(N)(=O)=O", "logD": 0.84}
{"Smi": "Cc1cccc(S(N)(=O)=O)c1", "logD": 0.85}
{"Smi": "NS(=O)(=O)c1ccc([N+](=O)[O-])c(C(F)(F)F)c1", "logD": 1.73}
{"Smi": "NS(=O)(=O)c1ccc(Cl)c([N+](=O)[O-])c1", "logD": 1.91}

====

Reported values of logD for individual entries
Test: method code SF-AS, from DOI: 10.1021/jm00304a030, PMID: 5793164
Conditions: pH 7.4
Assay Metric: logD

{"Smi": "c1ccc2[nH]ncc2c1", "Assay Metric": "logD", "Test Value": 1.82}
{"Smi": "O=C1Cc2ccccc2N1", "Assay Metric": "logD", "Test Value": 1.15}

====

Reported values of logP for individual entries

{"Smi": "c1cc2cccc3c4cccc5cccc(c(c1)c23)c54", "logP": 6.53}
{"Smi": "c1ccc2c(c1)cc1ccc3cccc4ccc2c1c34", "logP": 6.57}
{"Smi": "O=C(O)c1ccccc1O", "logP": 1.75}
{"Smi": "c1ccc2c(c1)ccc1c3ccccc3ccc21", "logP": 6.01}

====

Assay: method code SF-AS, from DOI: 10.1007/bf01648987
Reported values of logP for individual entries

{"Compound": "Oc1ccc(Br)cc1Br", "logP": 3.48}
{"Compound": "CN(C)c1ccccc1", "logP": 2.29}
{"Compound": "Cc1cc(Cl)ccc1O", "logP": 2.78}
{"Compound": "CCOC(=O)/C=C/c1ccccc1", "logP": 2.91}
{"Compound": "CC(=O)NC1CC1c1ccccc1 (stereo not given)", "logP": 1.43}

====

Test: method code SF-AS, from DOI: 10.1002/etc.5620180606
Reported values of logP for individual entries
Assay Metric: logP

{"Smi": "Nc1c(Cl)c(Cl)c(N)c2c1C(=O)c1ccccc1C2=O", "Test Value": 4.56}
{"Smi": "N#CCN(CCO)c1ccc(N=Nc2nc3ccc([N+](=O)[O-])cc3s2)cc1", "Test Value": 4.08}
{"Smi": "Nc1c(Oc2ccc(CN3CCCCCC3=O)cc2)cc(O)c2c1C(=O)c1ccccc1C2=O", "Test Value": 5.3}

====

Assay: method code SF-HPLC, from DOI: 10.1016/j.jchromb.2013.02.012, PMID: 23500352
Details: pH 4.4

{"Smi": "CS(=O)(=O)OC[C@H](O)[C@@H](O)COS(C)(=O)=O", "logD": -1.58}
{"Smi": "CS(=O)(=O)OC[C@H](O)[C@@H]1CO1", "logD": -1.18}

====

Assay: method code SF, from DOI: 10.1016/0378-5173(85)90077-8

{"Smi": "CCCCCC(=O)OCC(=O)[C@@]1(O)CC[C@H]2[C@@H]3CCC4=CC(=O)CC[C@]4(C)[C@H]3[C@@H](O)C[C@@]21C", "logP": 3.7}
{"Smi": "CCCCCCCC(=O)OCC(=O)[C@@]1(O)CC[C@H]2[C@@H]3CCC4=CC(=O)CC[C@]4(C)[C@H]3[C@@H](O)C[C@@]21C", "logP": 4.37}
{"Smi": "CCCCCC(=O)OCC(=O)[C@@]1(O)CC[C@H]2[C@@H]3CCC4=CC(=O)CC[C@]4(C)[C@H]3C(=O)C[C@@]21C", "logP": 3.3}

====

{"Smi": "CC(=O)Nc1ccc(OC(=O)CBr)cc1", "logP": 1.08}

====

Reported values of logD for individual entries
Assay: method code SF-HPLC, from DOI: 10.1016/0378-5173(92)90116-j
Settings: pH 7.4

{"Molecule": "CCC(C(=O)OCCCCCCOC(=O)C(CC)C(CO)Cc1cncn1C)C(CO)Cc1cncn1C (centres undefined)", "logD": 1.84}
{"Molecule": "CCC(C(=O)OCc1cccc(COC(=O)C(CC)C(CO)Cc2cncn2C)c1)C(CO)Cc1cncn1C (centres undefined)", "logD": 1.99}
{"Molecule": "CCC(C(=O)OCCCCOC(=O)C(CC)C(CO)Cc1cncn1C)C(CO)Cc1cncn1C (centres undefined)", "logD": 1.16}
{"Molecule": "CCC(C(=O)OCCCOC(=O)C(CC)C(CO)Cc1cncn1C)C(CO)Cc1cncn1C (centres undefined)", "logD": 0.68}

====

{"Smi": "CN(C)Cc1ccc(CSCCNc2[nH]ccc2[N+](=O)[O-])o1", "logP": 1.64}
{"Smi": "CCN/C(=N/C#N)NCCSCc1ncccc1Br", "logP": 1.98}

====

Experiment: method code SF-AS, from Korenman, Y. (1973). Extraction of p-halophenols. Zh. Prikl. Khim., 46(11)2754-2755.
Details: pH 7.4
Assay Metric: logD

{"Compound": "C=CCC1(CC(=C)Br)C(=O)NC(=O)N(C)C1=O (stereo unspecified)", "Assay Metric": "logD", "Test Value": 1.78}

====

Assay: method code SF-AS, from DOI: 10.1163/156856796x00098
Conditions: pH 7.4
Reported values of logD for individual entries

{"Smi": "CCOP(=O)(CC(C)(C)[N+]([O-])=Cc1ccccc1)OCC", "logD": 1}
{"Smi": "CCOP(=O)(CC(C)(C)[N+]([O-])=Cc1ccc(Cl)cc1)OCC", "logD": 2.29}
{"Smi": "CCOP(=O)(CC(C)(C)[N+]([O-])=Cc1cc[n+]([O-])cc1)OCC", "logD": -0.74}

====

Assay: method code SF-AS, from DOI: 10.1016/0378-5173(80)90117-9

{"Smi": "CCOc1ccc(O)cc1", "logP": 1.95}

====

Reported values of logP for individual entries

{"Smi": "CCOC(=O)C(c1c(O)c2ccccc2oc1=O)c1c(O)c2ccccc2oc1=O", "logP": 1.32}
{"Smi": "O=c1oc2ccccc2c(O)c1C(c1ccccc1)c1c(O)c2ccccc2oc1=O", "logP": 1.95}
{"Smi": "CCC(c1c(O)c2ccccc2oc1=O)c1c(O)c2ccccc2oc1=O", "logP": 2.02}
{"Smi": "COCC(c1c(O)c2ccccc2oc1=O)c1c(O)c2ccccc2oc1=O", "logP": 1.38}

====

Test: method code SF-AS, from PMID: 2551304
Conditions: pH 7.4

{"Smi": "Nc1ccncc1F", "logD": 0.63}

====

Experiment: method code SF-AS, from DOI: 10.1002/qua.560100722
Conditions: pH 7.8
Assay Metric: logD

{"Compound": "COc1cccc2c1C(=O)c1c(O)c3c(c(O)c1C2=O)CC(O)(C(C)=O)CC3OC1CC(NC(=O)CN(C)C)C(O)C(C)O1 (configuration not stated)", "Assay Metric": "logD", "Test Value": 1.26}
{"Compound": "COc1cccc2c1C(=O)c1c(O)c3c(c(O)c1C2=O)CC(O)(C(C)=O)CC3OC1CC(NC(=O)CN)C(O)C(C)O1 (configuration not stated)", "Assay Metric": "logD", "Test Value": 0.64}

====

{"Smi": "Cc1cccc(C)c1", "logP": 3.37}
{"Smi": "N#Cc1ccccc1", "logP": 1.5}

====

Experiment: method code SF, from DOI: 10.1016/0378-5173(87)90234-1
Settings: pH 7.4
Assay Metric: logD

{"Smi": "CCC(=O)n1c(=O)[nH]cc(F)c1=O", "Test Value": -0.21}

====

Assay Metric: logP

{"Compound": "O=C(O)C1(O)c2ccccc2-c2ccc(Cl)cc21 (stereo unspecified)", "Test Value": 3.22}

====

Experiment: method code SF, from PMID: 7429676
Details: pH 7.4
Assay Metric: logD

{"Compound": "CC(O)Cn1cnc2c1c(=O)n(C)c(=O)n2C (stereo unspecified)", "Test Value": -0.77}

====

Reported values of logP for individual entries
Assay Metric: logP

{"Compound": "Cc1ccc(C(=O)CCCN2CCC(O)(c3ccc(Cl)cc3)CC2)cc1", "Test Value": 3.44}
{"Compound": "COc1ccc(C(=O)CCCN2CCC(O)(c3ccc(Cl)cc3)CC2)cc1", "Test Value": 2.9}
{"Compound": "CC(CCN1CCC(O)(c2ccc(Cl)cc2)CC1)c1ccc(F)cc1 (stereo not drawn)", "Test Value": 4.02}

====

Assay Metric: logP

{"Smi": "Clc1cccc(C(Cl)(Cl)Cl)n1", "Test Value": 3.41}

====

Experiment: method code G-HPLC, from DOI: 10.1016/s0045-6535(97)00024-6

{"Smi": "c1ccc2nc3c4ccccc4c4ccccc4c3cc2c1", "logP": 5.66}

====

Experiment: method code SF-AS, from Korenman, Y.; Pazynin, T. (1972). Distribution of nitrosonaphthols between organic solvents and water. J. anal. chem. USSR, 27(4)723-725.
Settings: pH 2.0

{"Smi": "O=Nc1c(O)ccc2ccccc12", "logD": 2.28}
